# runDescription: AUCinf in Non-naive cynomolgus monkey at 5 mg/kg, iv
# Assay type: ADME, organism-based, Macaca fascicularis
# Design: time infinity, dose 5 mg/kg, route intravenous
# settings: plasma
AUC(0-inf) reference

{"compound": "CC[C@]1(CO)O[C@@H](n2ccc(N)nc2=O)[C@H](F)[C@@H]1O", "AUC(0-inf) [ng·h/mL]": 4360}
{"compound": "Nc1ccn([C@@H]2O[C@@](CO)(CF)[C@@H](O)[C@H]2F)c(=O)n1", "AUC(0-inf) [ng·h/mL]": 1540}
{"compound": "Nc1ccn([C@@H]2O[C@@](CO)(CCl)[C@@H](O)[C@H]2F)c(=O)n1 [ALS-8112]", "AUC(0-inf) [ng·h/mL]": 2980}

---

# tgt: DNA-directed RNA polymerase, mitochondrial (Homo sapiens)
# runDescription: Inhibition of human mitochondrial RNA polymerase assessed as 13-mer product using [33P]RNA/DNA primer/templates used by […] gel electrophoresis
The source made the active and inactive calls. The rule behind the calls is not given here.
readoutType: inhibition

{"smilesString": "Nc1ccn([C@@H]2O[C@](CCl)(COP(=O)(O)OP(=O)(O)OP(=O)(O)O)[C@@H](O)[C@H]2F)c(=O)n1", "readoutType": "inhibition", "recordedValue": "inactive"}
{"smilesString": "Nc1ccn([C@@H]2O[C@](CF)(COP(=O)(O)OP(=O)(O)OP(=O)(O)O)[C@@H](O)[C@H]2F)c(=O)n1", "readoutType": "inhibition", "recordedValue": "Active"}
{"smilesString": "CC[C@]1(COP(=O)(O)OP(=O)(O)OP(=O)(O)O)O[C@@H](n2ccc(N)nc2=O)[C@H](F)[C@@H]1O", "readoutType": "inhibition", "recordedValue": "inactive"}
{"smilesString": "Nc1ccn([C@@H]2O[C@H](COP(=O)(O)OP(=O)(O)OP(=O)(O)O)[C@@H](O)[C@H]2F)c(=O)n1", "readoutType": "inhibition", "recordedValue": "Active"}
{"smilesString": "[N-]=[N+]=N[C@]1(COP(=O)(O)OP(=O)(O)OP(=O)(O)O)O[C@@H](n2ccc(N)nc2=O)[C@H](F)[C@@H]1O", "readoutType": "inhibition", "recordedValue": "Active"}
{"smilesString": "[N-]=[N+]=N[C@]1(COP(=O)(O)OP(=O)(O)OP(=O)(O)O)O[C@@H](n2ccc(N)nc2=O)C(F)(F)[C@@H]1O", "readoutType": "inhibition", "recordedValue": "inactive"}
{"smilesString": "Nc1ccn([C@@H]2O[C@H](COP(=O)(O)OP(=O)(O)OP(=O)(O)O)[C@@H](O)[C@@H]2O)c(=O)n1", "readoutType": "inhibition", "recordedValue": "Active"}
{"smilesString": "Nc1ccn([C@@H]2O[C@H](COP(=O)(O)OP(=O)(O)OP(=O)(O)O)[C@@H](O)C2(F)F)c(=O)n1", "readoutType": "inhibition", "recordedValue": "Active"}

---

# runDescription: Inhibition of Respiratory syncytial virus RNA polymerase in crude RSV RNP complex assessed as inhibition of [33P]CMP incorporation into RNA chain
pIC50: −log10 of the molar value.
readoutType: pIC50

{"smilesString": "Nc1ccn([C@@H]2O[C@](CCl)(COP(=O)(O)OP(=O)(O)OP(=O)(O)O)[C@@H](O)[C@H]2F)c(=O)n1", "recordedValue": 7.70}
{"smilesString": "[N-]=[N+]=N[C@]1(COP(=O)(O)OP(=O)(O)OP(=O)(O)O)O[C@@H](n2ccc(N)nc2=O)C(F)(F)[C@@H]1O", "recordedValue": 6.52}
{"smilesString": "CSC[C@]1(COP(=O)(O)OP(=O)(O)OP(=O)(O)O)O[C@@H](n2ccc(N)nc2=O)[C@H](F)[C@@H]1O", "recordedValue": 5.57}
{"smilesString": "[N-]=[N+]=N[C@]1(COP(=O)(O)OP(=O)(O)OP(=O)(O)O)O[C@@H](n2ccc(N)nc2=O)[C@@H](O)[C@@H]1O", "recordedValue": 6.70}
{"smilesString": "C=C[C@]1(COP(=O)(O)OP(=O)(O)OP(=O)(O)O)O[C@@H](n2ccc(N)nc2=O)[C@H](F)[C@@H]1O", "recordedValue": 7.05}
{"smilesString": "[N-]=[N+]=N[C@]1(COP(=O)(O)OP(=O)(O)OP(=O)(O)O)O[C@@H](n2ccc(N)nc2=O)[C@H](O)[C@@H]1O", "recordedValue": 6.62}
{"smilesString": "Nc1ccn([C@@H]2O[C@](CF)(COP(=O)(O)OP(=O)(O)OP(=O)(O)O)[C@@H](O)[C@H]2F)c(=O)n1", "recordedValue": 6.92}
{"smilesString": "CCC[C@]1(COP(=O)(O)OP(=O)(O)OP(=O)(O)O)O[C@@H](n2ccc(N)nc2=O)[C@H](F)[C@@H]1O", "recordedValue": 5.70}
{"smilesString": "Nc1ccn([C@@H]2O[C@](CBr)(COP(=O)(O)OP(=O)(O)OP(=O)(O)O)[C@@H](O)[C@H]2F)c(=O)n1", "recordedValue": 6.82}
{"smilesString": "C#C[C@]1(COP(=O)(O)OP(=O)(O)OP(=O)(O)O)O[C@@H](n2ccc(N)nc2=O)[C@H](F)[C@@H]1O", "recordedValue": 6.89}
{"smilesString": "CC[C@]1(COP(=O)(O)OP(=O)(O)OP(=O)(O)O)O[C@@H](n2ccc(N)nc2=O)[C@H](F)[C@@H]1O", "recordedValue": 6.82}
{"smilesString": "Nc1ccn([C@@H]2O[C@](CCl)(COP(=O)(O)OP(=O)(O)OP(=O)(O)O)[C@@H](O)[C@@H]2F)c(=O)n1", "recordedValue": 5.31}
{"smilesString": "C=CC[C@]1(COP(=O)(O)OP(=O)(O)OP(=O)(O)O)O[C@@H](n2ccc(N)nc2=O)[C@H](F)[C@@H]1O", "recordedValue": 7.05}
{"smilesString": "Nc1ccn([C@@H]2O[C@@](COP(=O)(O)OP(=O)(O)OP(=O)(O)O)(C3CC3)[C@@H](O)[C@H]2F)c(=O)n1", "recordedValue": 6.70}

Numbers sourced from ChEMBL document CHEMBL3414561.
